Quick reference for IC50 among some compounds
Test system: T4 lymphocytes (CEM cell line)
Protocol Text: NCI in vitro anti-HIV screen, growth inhibition of uninfected CEM cells (XTT)
Assay type: cell-based
Study Conditions: drug-treated uninfected CEM cells, 6 days, XTT; approximate values; one value per run; read-out: IC50 (50% inhibitory concentration)
The reply should be a number in µM, with the unit left off.

{"Smiles Structure": "CCCCCC=C(c1cc(Br)cc(C(=O)O)c1OC)c1cc(Br)cc(C(=O)O)c1OC", "Unit Abbrev": "µM", "IC50": 244}
{"Smiles Structure": "COC(=O)c1cc(C(=CCCBr)c2cc(Cl)c(OC)c(C(=O)OC)c2)cc(Cl)c1OC", "Unit Abbrev": "µM", "IC50": 15.2}

// switching to the query compound
So what IC50 did CCCCCCCCCCCCCCCC=C(c1cc(Cl)c(OC)c(C(=O)O)c1)c1cc(Cl)c(OC)c(C(=O)O)c1 get with T4 lymphocytes (CEM cell line)?
25.9

Attribution: patent US5439899A
